Molecular target: Acetylcholinesterase (Mus musculus)
Sequence (P21836 whole entry): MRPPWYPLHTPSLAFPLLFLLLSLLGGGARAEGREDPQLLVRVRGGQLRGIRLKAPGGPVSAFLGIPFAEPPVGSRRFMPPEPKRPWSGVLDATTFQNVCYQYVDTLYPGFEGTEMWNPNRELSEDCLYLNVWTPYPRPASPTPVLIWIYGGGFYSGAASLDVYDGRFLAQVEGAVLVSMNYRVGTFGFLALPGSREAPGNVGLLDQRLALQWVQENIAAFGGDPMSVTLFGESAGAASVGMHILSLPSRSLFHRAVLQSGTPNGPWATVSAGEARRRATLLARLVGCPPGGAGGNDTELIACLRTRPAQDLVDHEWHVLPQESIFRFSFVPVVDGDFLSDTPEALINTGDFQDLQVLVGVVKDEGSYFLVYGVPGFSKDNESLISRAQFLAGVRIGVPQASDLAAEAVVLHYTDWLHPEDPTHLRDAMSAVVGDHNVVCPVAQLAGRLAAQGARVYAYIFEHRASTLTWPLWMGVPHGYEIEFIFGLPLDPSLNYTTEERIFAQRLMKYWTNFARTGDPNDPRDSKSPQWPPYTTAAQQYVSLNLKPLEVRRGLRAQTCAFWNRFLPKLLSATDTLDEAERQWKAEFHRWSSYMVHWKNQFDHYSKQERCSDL
IC50 values for the molecules below.
Measure name: IC50

| Compound | Measure name | Result |
| --- | --- | --- |
| CN1c2ccc(OC(=O)Nc3ccc([N+](=O)[O-])cc3)cc2[C@]2(C)CCN(CCc3ccccc3)[C@H]12 | IC50 | > 100 µM |
| CN1c2ccc(OC(=O)Nc3ccc(-c4ccccc4)cc3)cc2[C@]2(C)CCN(CCc3ccccc3)[C@H]12 | IC50 | > 100 µM |
| CN1c2ccc(OC(=O)Nc3ccc(Oc4ccccc4)cc3)cc2[C@]2(C)CCN(CCc3ccccc3)[C@H]12 | IC50 | > 100 µM |
